Origin of measurements: patent US20260116963A1

biological target: human IL-13 (human, UniProt P35225 25-146, limits assumed); assay: cell-based or functional assay
Sequence (P35225 other isoform, or with tags, fused parts or gaps limits assumed): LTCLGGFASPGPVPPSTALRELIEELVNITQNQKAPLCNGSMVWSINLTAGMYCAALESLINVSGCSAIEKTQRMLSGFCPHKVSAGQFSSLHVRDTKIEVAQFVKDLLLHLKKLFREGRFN
endpoint: IC50, HEK-Blue IL-13Ra1/IL-4Ra STAT6-SEAP reporter assay

// input: 2 binders below; output: IC50, HEK-Blue IL-13Ra1/IL-4Ra STAT6-SEAP reporter assay for each
1. AbE (antibody, human IgG1, kappa, V domains shown) VH: QVTLRESGPALVKPTQTLTLTCTVSGASLSAYSVNWIRQPPGKALEWLAMIWGDGKIVYNSALKSRLTISKDTSKNQVVLTMTNMDPVDTATYYCAGDGYFPYAMDNWGQGSLVTVSS VL: DIVMTQSPDSLSVSLGERATINCRASKSVDSYGHSYMHWYQQKPGQPPKLLIYWASNLESGVPDRFSGSGSGTDFTLTISSLQAEDVAVYYCQQNNEDPRTFGGGTKVEIKR
2. AbI (antibody, human IgG1, kappa, V domains shown) VH: QVTLRESGPALVKPTQTLTLTCTVSGASLSRYSVNWIRQPPGKALEWLAMIWGDGKIVYNSALKSRLTISKDTSKNQVVLTMTNMDPVDTATYYCAGDGFYPYAMDNWGQGSLVTVSS VL: DIVMTQSPDSLSVSLGERATINCRASKSVDSYGNSYMHWYQQKPGQPPKLLIYLASNLESGVPDRFSGSGSGTDFTLTISSLQAEDVAVYYCQQNNEDPRTFGGGTKVEIKR

A.
1. 0.118 µg/mL
2. 0.223 µg/mL
